Each recorded value in this set is attributed to patent US20260069689A1.

- Target: T1, SARS-CoV2 Spike ecto foldon Trimer expressed with a C-terminal myc-myc-hexahistidine (SARS-CoV-2, UniProt P0DTC2 14-1213)
- T1 construct: extracellular domain
- Assay protocol: SPR Biacore, mAb captured by anti-hFc, 37C
Endpoint label: Kd (nM)
Expressed in nM, but write only the number.

As a guide, the following entries are already answered.
• mAb13459 (antibody, V domains shown) VH: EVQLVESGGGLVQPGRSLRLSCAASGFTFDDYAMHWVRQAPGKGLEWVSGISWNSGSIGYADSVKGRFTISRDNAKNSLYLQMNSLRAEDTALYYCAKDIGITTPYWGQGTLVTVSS VL: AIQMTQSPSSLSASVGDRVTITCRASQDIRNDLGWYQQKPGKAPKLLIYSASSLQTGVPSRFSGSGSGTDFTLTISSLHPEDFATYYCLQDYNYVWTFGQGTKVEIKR = 0.0599
• mAb15158 (antibody, V domains shown) VH: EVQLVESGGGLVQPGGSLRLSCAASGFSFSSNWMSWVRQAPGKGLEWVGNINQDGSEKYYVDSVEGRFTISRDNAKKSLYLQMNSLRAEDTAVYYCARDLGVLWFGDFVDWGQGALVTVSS VL: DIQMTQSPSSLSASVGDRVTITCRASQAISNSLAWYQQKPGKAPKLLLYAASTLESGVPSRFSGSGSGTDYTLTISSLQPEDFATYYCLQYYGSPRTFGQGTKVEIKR = 0.0541
• mAb15166 (antibody, V domains shown) VH: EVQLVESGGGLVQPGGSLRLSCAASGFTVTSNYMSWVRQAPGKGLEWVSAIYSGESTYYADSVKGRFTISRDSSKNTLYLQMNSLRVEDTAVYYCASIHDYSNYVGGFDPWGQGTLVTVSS VL: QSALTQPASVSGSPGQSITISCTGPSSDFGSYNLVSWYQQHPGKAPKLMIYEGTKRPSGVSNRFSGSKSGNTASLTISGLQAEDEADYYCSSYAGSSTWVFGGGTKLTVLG = 0.054
• mAb13457 (antibody, V domains shown) VH: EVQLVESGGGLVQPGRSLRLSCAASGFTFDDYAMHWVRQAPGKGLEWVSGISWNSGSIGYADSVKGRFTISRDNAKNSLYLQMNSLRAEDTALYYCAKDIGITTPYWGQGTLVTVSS VL: AIQMTQSPSSLSASVGDRVTITCRASQDIRNDLGWYQQKPGKAPKLLIYSASSLQTGVPSRFSGSGSGTDFTLTISSLHPEDFATYYCLQDYDYTWTFGQGTKVEIKR = 0.0779

IN: Tell me the measured Kd of mAb14247 (antibody, V domains shown) VH: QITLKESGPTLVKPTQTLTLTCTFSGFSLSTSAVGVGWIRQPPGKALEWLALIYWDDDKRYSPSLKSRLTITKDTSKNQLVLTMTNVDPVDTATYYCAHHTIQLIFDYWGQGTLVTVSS VL: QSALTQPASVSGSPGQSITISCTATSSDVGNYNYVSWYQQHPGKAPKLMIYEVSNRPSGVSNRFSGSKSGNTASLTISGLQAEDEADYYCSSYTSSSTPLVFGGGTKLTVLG , please.
OUT: 0.0701
